# Test system: chronic myelogenous leukemia (K562)
# protocol.description: Anti-proliferative activity on K562 cell line
# Assay type: cell-based
# assay.setup: Homo sapiens, K562, 72 h, CellTiterGlo
pIC50: −log10 of the molar value.
measured.endpoint: pIC50

1. CC(C)N1CCC2(CC1)CC(=O)c1cc(-c3ccc(C(=O)NCc4cncc(F)c4)cc3)ccc1O2 :: 7.10
2. Cc1cc(CNC(=O)c2ccc(-c3ccc4c(c3)C(=O)CC3(CCN(C(C)C)CC3)O4)cc2)on1 :: 7.17

a: Cc1ccc(CNC(=O)c2ccc(-c3ccc4c(c3)C(=O)CC3(CCN(C(C)C)CC3)O4)c(F)c2)cn1
b: Cc1ccc(CNC(=O)c2ccc(-c3ccc4c(c3)C(=O)N(C)C3(CCN(C(C)C)CC3)O4)cc2)cn1
For the pair a and b , which member has the lower pIC50 number? // return label of chosen record a
(a: 5.76, b: 7.55)

A: CC(C)N1CCC2(CC1)Oc1ccc(-c3ccc(C(=O)NCc4cncs4)cn3)cc1C(=O)N2C
B: CCCN1CCC2(CC1)CC(=O)c1cc(-c3ccc(C(=O)NCc4cncc(F)c4)cc3)ccc1O2
For the pair A and B , which member has the lower pIC50 number? // return label of chosen record A

* * *

# System: chronic myelogenous leukemia (K562)
# protocol.description: Anti-proliferative activity on K562 cell line
# Assay type: cell-based
# assay.setup: Homo sapiens, K562, 72 h, CellTiterGlo
pIC50: −log10 of the molar value.
measured.endpoint: pIC50

Below: 8 compounds and their reported pIC50.
1. CCN1CCC2(CC1)CC(=O)c1cc(-c3ccc(C(=O)NCc4cncs4)cn3)ccc1O2 :: 6.74
2. CCCN1CCC2(CC1)CC(=O)c1cc(-c3ccc(C(=O)NCc4cncs4)cn3)ccc1O2 :: 7.45
3. COCCCN1CCC2(CC1)CC(=O)c1cc(-c3ccc(C(=O)NCc4cncs4)cn3)ccc1O2 :: 7.26
4. CC(C)N1CCC2(CC1)Oc1ccc(-c3ccc(C(=O)NCc4cnn(C)c4)cn3)cc1C(=O)N2C :: 6.20
5. COCCCN1CCC2(C=Cc3cc(-c4ccc(C(=O)NCc5cncs5)cn4)ccc3O2)CC1 :: 7.07
6. COCCCCN1CCC2(CC1)CC(=O)c1cc(-c3ccc(C(=O)NCc4cncc(F)c4)cn3)ccc1O2 :: 7.53
7. CC(C)N1CCC2(CC1)CC(=O)c1cc(-c3ccc(C(=O)NCc4cnn(C)c4)cn3)ccc1O2 :: 6.52
8. CCCN1CCC2(C=Cc3cc(-c4ccc(C(=O)NCc5cc(C)no5)cn4)ccc3O2)CC1 :: 7.59

1: CCc1cc(CNC(=O)c2ccc(-c3ccc4c(c3)C(=O)CC3(CCN(C(C)C)CC3)O4)cc2)on1
2: CC(C)N1CCC2(CC1)Oc1ccc(-c3ccc(C(=O)NCc4cncc(F)c4)cc3)cc1C(=O)N2C
Just curious, which one has the larger pIC50 reading, 1 or 2 ? // return label of chosen record 2
(2: 7.55, 1: 7.35)

* * *

# subject.of.test: Recombinant NAMPT enzyme (Homo sapiens, UniProt P43490)
# Sequence (P43490 whole entry): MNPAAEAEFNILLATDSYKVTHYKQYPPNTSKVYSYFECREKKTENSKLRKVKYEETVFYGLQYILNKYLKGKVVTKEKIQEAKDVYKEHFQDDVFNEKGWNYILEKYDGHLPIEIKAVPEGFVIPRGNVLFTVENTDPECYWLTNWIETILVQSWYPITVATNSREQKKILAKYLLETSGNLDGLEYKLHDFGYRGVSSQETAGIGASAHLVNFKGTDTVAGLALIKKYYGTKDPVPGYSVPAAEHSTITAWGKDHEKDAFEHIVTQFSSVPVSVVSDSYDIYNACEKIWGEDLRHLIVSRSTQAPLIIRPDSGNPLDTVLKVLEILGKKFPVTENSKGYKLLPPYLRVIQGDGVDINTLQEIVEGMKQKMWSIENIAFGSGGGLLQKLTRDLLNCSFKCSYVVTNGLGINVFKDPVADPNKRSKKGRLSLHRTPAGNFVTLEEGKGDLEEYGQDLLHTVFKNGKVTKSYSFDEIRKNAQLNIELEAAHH
# protocol.description: Inhibition of NAMPT enzymatic activity
# assay.setup: 6 hours at 37° C., NMN product detected
measured.endpoint: IC50 (nM)

I: COCCCN1CCC2(C=Cc3cc(-c4ccc(C(=O)NCc5cncs5)cn4)ccc3O2)CC1
II: CC(C)N1CCC2(CC1)CC(=O)c1cc(-c3ccc(C(=O)NCc4cncc(F)c4)cc3)ccc1O2
For the pair I and II , which member has the lower IC50 number? // return label of chosen record II

1: CCN1CCC2(CC1)CC(=O)c1cc(-c3ccc(C(=O)NCc4cncs4)cn3)ccc1O2
2: CCCN1CCC2(CC1)CC(=O)c1cc(-c3ccc(C(=O)NCc4cc(C)no4)cc3)ccc1O2
3: CCCCONC(=O)c1ccc(-c2ccc3c(c2)C(=O)CC2(CCN(C(C)C)CC2)O3)nc1
4: CCCN1CCC2(CC1)CC(=O)c1cc(-c3ccc(C(=O)NCc4cncc(F)c4)cc3)ccc1O2
5: O=C(NCc1cncc(F)c1)c1ccc(-c2ccc3c(n2)C(=O)CC2(CCN(CC4CCC4)CC2)O3)cc1
Arrange the 5 compounds from largest to smallest IC50. Give me the labels in the order the question wants. 1, 5, 4, 2, 3

I: CCc1cc(CNC(=O)c2ccc(-c3ccc4c(c3)C(=O)CC3(CCN(C(C)C)CC3)O4)cc2)on1
II: Cc1cc(CNC(=O)c2ccc(-c3ccc4c(c3)C(=O)NC3(CCN(C(C)C)CC3)O4)nc2)on1
For the pair I and II , which member has the lower IC50 number? // return label of chosen record I

P: CCCN1CCC2(CC1)CC(=O)c1cc(-c3ccc(C(=O)NCc4cc(C)no4)cn3)ccc1O2
Q: COCCCN1CCC2(CC1)CC(=O)c1cc(-c3ccc(C(=O)NCc4cncs4)cn3)ccc1O2
Just curious, which one has the larger IC50 reading, P or Q ? // return label of chosen record Q
(Q: 141 nM, P: 1 nM)

I: CCCN1CCC2(CC1)CC(=O)c1cc(-c3ccc(C(=O)NCc4cncs4)cn3)ccc1O2
II: Cc1cc(CNC(=O)c2ccc(-c3ccc4c(c3)C(=O)CC3(CCN(C(C)C)CC3)O4)cc2)no1
Just curious, which one has the larger IC50 reading, I or II ? // return label of chosen record I

1: CC(C)N1CCC2(CC1)CC(=O)c1cc(-c3ccc(C(=O)NCc4cnn(C)c4)cn3)ccc1O2
2: COCCCCN1CCC2(CC1)CC(=O)c1cc(-c3ccc(C(=O)NCc4cncc(F)c4)cn3)ccc1O2
Just curious, which one has the larger IC50 reading, 1 or 2 ? // return label of chosen record 1

1: CC(C)N1CCC2(CC1)Oc1ccc(-c3ccc(C(=O)NCc4cncc(F)c4)cc3)cc1C(=O)N2C
2: CC(C)N1CCC2(CC1)Oc1ccc(-c3ccc(C(=O)NCc4cncs4)cn3)cc1C(=O)N2C
Just curious, which one has the larger IC50 reading, 1 or 2 ? // return label of chosen record 2

I: CC(C)N1CCC2(CC1)Oc1ccc(-c3ccc(C(=O)NCc4cnn(C)c4)cn3)cc1C(=O)N2C
II: Cc1ccc(CNC(=O)c2ccc(-c3ccc4c(c3)C(=O)N(C)C3(CCN(C(C)C)CC3)O4)cc2)cn1
Just curious, which one has the larger IC50 reading, I or II ? // return label of chosen record I
